Hello, the source for this data is PubChem BioAssay (NCATS), in case you need it.

Assay method text: qHTS drug screen for cell cycle checkpoint inhibitors in PARPi-resistant BRCA-mutant ovarian cancer cell lines. (AID 1963452)
Setup conditions: PEO1/OlaR viability, CellTiter-Glo luminescence, 96 h; measured here: PEO4 Z-AUC; stronger effect = lower value
Source text: Women's Malignancies Branch, Center for Cancer Research (CCR), National Cancer Institute (NCI), National Institutes of Health (NIH), Bethesda, MD Poly (ADP-ribose) polymerase inhibitors (PARPis) have changed the treatment paradigm in breast cancer gene (BRCA) - mutant high-grade serous ovarian carcinoma (HGSC). […] 6; Detection; Luminescence, PHERAstar (BMG Labtech) plate reader. […] 6. Luminescence readings were taken using PHERAstar (BMG Labtech). […]
# Z-AUC listing for each entry below

Molecule: CC(C)C[C@H](CC(=O)O)C(=O)N[C@@H](Cc1c[nH]c2ccccc12)C(=O)N[C@@H](C)c1ccccc1
Z-AUC: 1.63
--
Molecule: CC(C)[C@H](CO)Nc1nc(Nc2ccc(C(=O)O)c(Cl)c2)c2ncn(C(C)C)c2n1
Z-AUC: 0.0501
--
Molecule: CC(C)n1cnc2c(NCCCCCCNC(=O)OC(C)(C)C)nc(NCCO)nc21
Z-AUC: 1.56
--
Molecule: CCCCCNC(=O)N1CCC(CN(Cc2ccc(Cl)cc2)Cc2ccc([N+](=O)[O-])s2)C1 (stereo not given)
Z-AUC: -0.734
--
Molecule: c1ccc2c(-c3cnn4cc(-c5ccc(N6CCNCC6)cc5)cnc34)ccnc2c1
Z-AUC: -0.419
--
Molecule: COc1ncc(-c2ccc3nccc(-c4ccnnc4)c3c2)cc1NS(=O)(=O)c1ccc(F)cc1F
Z-AUC: -1.99
--
Molecule: O=C(Nc1c(Cl)cncc1Cl)c1ccc(OC(F)F)c(OCC2CC2)c1
Z-AUC: 0.508
--
Molecule: Clc1cc(Cl)cc(CNc2ncncc2-c2ccc3c(c2)OCO3)c1
Z-AUC: -0.467
--
Molecule: COc1ccc2cc(-c3nc(-c4ccc(S(C)=O)cc4)[nH]c3-c3ccncc3)ccc2c1 (stereo not given)
Z-AUC: -0.281
--
Molecule: O=c1cc(CN2CCOCC2)occ1OCCCCCSc1ccnc2cc(C(F)(F)F)ccc12
Z-AUC: -0.0909

Q. If you can, please state the reported Z-AUC value of COc1cc(NC(=O)c2ccc(-c3ccc(Cl)cc3)o2)cc(OC)c1 .
A. -0.303

Q. If you can, please state the reported Z-AUC value of Nc1ncnc2ccccc12 .
A. 0.705

Q. If you can, please state the reported Z-AUC value of CC/C(=C(\c1ccccc1)c1ccc(OCCN(C)C)cc1)c1ccccc1 .
A. -0.672

Q. If you can, please state the reported Z-AUC value of CC(C)=CC[C@@H](O)C1=CC(=O)c2c(O)ccc(O)c2C1=O .
A. -0.229

Q. If you can, please state the reported Z-AUC value of O=c1c(O)c(-c2ccc(O)cc2)oc2cc(O)cc(O)c12 .
A. 1.73

Q. If you can, please state the reported Z-AUC value of CC(C)(C)OC(=O)N[C@H]1CCCCCC=C[C@@H]2C[C@@]2(C(=O)NS(=O)(=O)C2CC2)NC(=O)[C@@H]2C[C@@H](OC(=O)N3Cc4cccc(F)c4C3)CN2C1=O .
A. 1.2

Q. If you can, please state the reported Z-AUC value of CCOC(CN1C(=O)[C@](CC(=O)Nc2ccc(C)cc2)(NC(=O)Nc2ccc(C)cc2)c2ccccc21)OCC .
A. 1.28

Q. If you can, please state the reported Z-AUC value of NS(=O)(=O)c1ccc(NC2=CC(=O)c3ccccc3C2=O)cc1 .
A. -0.629

Q. If you can, please state the reported Z-AUC value of COc1cc(N2CCC(N3CCN(C)CC3)CC2)ccc1Nc1ncc(Cl)c(Nc2ccccc2S(=O)(=O)C(C)C)n1 .
A. -0.618

Q. If you can, please state the reported Z-AUC value of C=C1C(=O)OC(CCCCCCCC)C1C(=O)O (stereo not given) .
A. 0.342

Q. If you can, please state the reported Z-AUC value of O=c1cc(-c2ccccc2)oc2cc(O)cc(O)c12 .
A. 1.3

Q. If you can, please state the reported Z-AUC value of O=c1cc(-c2cccc3c2Sc2ccccc2S3)oc(N2CCOCC2)c1 .
A. 0.875

Q. If you can, please state the reported Z-AUC value of Cc1ccn(-c2ccc(-c3ncco3)cc2)c(=O)c1-c1ccc2nc(N)ncc2c1 .
A. 1.07

Q. If you can, please state the reported Z-AUC value of Cc1ccc(/C=N/NC(=O)c2ccccc2Oc2ccccc2)o1 .
A. 0.656

Q. If you can, please state the reported Z-AUC value of CC(C)C(C)C=CC(C)C1CCC2C3=CC=C4CC(O)CCC4(C)C3CCC21C (stereo not given) .
A. 1.32

Q. If you can, please state the reported Z-AUC value of O=C(NCc1ccccc1)c1csc(Nc2ccncn2)n1 .
A. 0.922

Q. If you can, please state the reported Z-AUC value of O=C(NOCC(O)CO)c1cc(Br)c(F)c(F)c1Nc1ccc(I)cc1F (stereo not given) .
A. 0.38

Q. If you can, please state the reported Z-AUC value of NC(=O)c1cnc(-c2ccc(C3(N)CCC3)cc2)c(-c2ccccc2)c1 .
A. -0.533

###

Assay method text: qHTS drug screen for cell cycle checkpoint inhibitors in PARPi-resistant BRCA-mutant ovarian cancer cell lines. (AID 1963452)
Setup conditions: PEO1/OlaR viability, CellTiter-Glo luminescence, 96 h; stronger effect = lower value
Value type: Z-AUC
Response field accepts a number only; no unit should be typed.

Before answering, review these 8 worked examples.
Molecule: c1cc(-c2sc(-c3ccncc3)c(-c3ccncc3)c2-c2ccncc2)ccn1
Z-AUC: 1.76
//
Molecule: CC(C)C[C@H](CC(=O)O)C(=O)N[C@@H](Cc1c[nH]c2ccccc12)C(=O)N[C@@H](C)c1ccccc1
Z-AUC: 1.58
//
Molecule: CCOC(=O)C1=C(N)Oc2ccc(Br)cc2C1C(C#N)C(=O)OCC (centres undefined)
Z-AUC: 1.64
//
Molecule: O=C(O)c1cc(O)c2c(c1)C(=O)c1cccc(O)c1C2=O
Z-AUC: -0.369
//
Molecule: COc1ccc(-c2coc3cc(O)cc(O)c3c2=O)cc1
Z-AUC: 1.34
//
Molecule: CC(=O)OC1C(C)OC(Oc2c(-c3ccc(O)cc3)oc3cc(O)cc(O)c3c2=O)C(O)C1OC(C)=O (centres undefined)
Z-AUC: -0.58
//
Molecule: CCc1ccc(OCc2ccccc2C(=O)Nc2ccc3nc(C)cc(N)c3c2)cc1
Z-AUC: -0.061
//
Molecule: C[C@]12CC[C@@H]3c4ccc(O)cc4C[C@@H](CCCCCCCCCS(=O)CCCC(F)(F)C(F)(F)F)[C@H]3[C@H]1CC[C@H]2O (some centres undefined)
Z-AUC: -0.724

Please turn your attention to the following entry.
Q. If you can, please state the reported Z-AUC value of Cc1cccc(Nc2nc(-c3ccncc3)cs2)c1 .
A. 0.772

###

Assay method text: Quantitative High-Throughput drug screen in 47 multiple myeloma cell lines against the NCATS MIPE library collection: MM1R_ATCC cell viability assay (AID 1918981); also: nearly all actives have a fitted effect of over 35% in size
Setup conditions: MM1R multiple myeloma cells, CellTiter-Glo viability, 48 h; series mostly up to 45.8 µM
Records with an inconclusive call do not appear. Calls of active or inactive are those of the source. Calls come from the whole dose curve; as a rule, active = well fitted cell-killing curve with a large enough effect; inconclusive = small, poorly fitted or top-dose-only effect, or effect the other way; inactive = no such curve, though single readings can be large or run the other way.
Could you please pick one outcome from this set? active, inactive

Molecule: CC[C@]1(O)C[C@@H]2CN(CCc3c([nH]c4ccccc34)[C@@](C(=O)OC)(c3cc4c(cc3OC)N(C=O)[C@@H]3C45CCN4CC=C[C@](CC)([C@H]45)[C@@H](OC(C)=O)[C@]3(O)C(=O)OC)C2)C1 (stereo not given in full)
Class label: active
//
Molecule: O=c1ccn([C@@H]2O[C@H](CO)[C@H](O)[C@H]2O)c(=O)[nH]1
Class label: inactive
//
Molecule: COc1ccc(Cc2nccc3cc(OC)c(OC)cc23)cc1OC
Class label: active
//
Molecule: COc1ccc2c(Oc3ccc(NC(=O)c4c(C)n(CC(C)(C)O)n(-c5ccccc5)c4=O)nc3)ccnc2c1
Class label: inactive
//
Molecule: C[C@H](NC(=O)C(=O)Nc1ccccc1C(C)(C)C)C(=O)N[C@@H](CC(=O)O)C(=O)COc1c(F)c(F)cc(F)c1F
Class label: inactive
//
Molecule: Cc1ccc(C(=O)Nc2cccc(C(F)(F)F)c2)cc1Nc1nc(-c2cccnc2)nc2c1cnn2C
Class label: active

Q. Which outcome was entered for the molecule CO[C@H]1C[C@@H]2CC[C@@H](C)[C@@](O)(O2)C(=O)C(=O)N2CCCC[C@@H]2C(=O)O[C@H]([C@@H](C)C[C@@H]2CC[C@H](O)[C@H](OC)C2)CC(=O)[C@H](C)C=C(C)[C@@H](O)[C@@H](OC)C(=O)[C@H](C)C[C@H](C)C=CC=CC=C1C in this test?
A. inactive

Q. Which outcome was entered for the molecule O=C1NC(=O)C(=Cc2cccc(C(F)(F)F)c2)S1 in this test?
A. inactive
